Each entry below carries its reported viability at 48 h, 50 ug/ml.
Assay: Cytotoxicity against African green monkey Vero cells assessed as survival at 50 ug/ml after 48 hrs by Cell-Titre Blue assay
Type: cell-based
Conditions: chlorocebus sabaeus, read-out: Survival

{"compound": "Cc1cccc(C)c1N1CN2C(=C(O)[C@H]1c1ccc(O)cc1)Nc1ccccc12", "viability at 48 h, 50 ug/ml (%)": 63}
{"compound": "Cc1ccc([C@@H]2C(O)=C3Nc4ccccc4N3CN2c2c(C)cccc2C)c(N)c1C", "viability at 48 h, 50 ug/ml (%)": 73}
{"compound": "COc1ccccc1N1CN2C(=C(O)[C@H]1c1ccccc1O)Nc1ccccc12", "viability at 48 h, 50 ug/ml (%)": 69}
{"compound": "COc1ccc(N2CN3C(=C(O)[C@H]2c2cccc(-c4ccccn4)c2)Nc2ccccc23)cc1", "viability at 48 h, 50 ug/ml (%)": 56}
{"compound": "NNC(=O)c1ccncc1 [ISONIAZID]", "viability at 48 h, 50 ug/ml (%)": 100}
{"compound": "OC1=C2Nc3ccccc3N2CN(c2cc(Cl)cc(Cl)c2)[C@@H]1c1ccc(Cl)cc1", "viability at 48 h, 50 ug/ml (%)": 69}
{"compound": "O=[N+]([O-])c1ccc(N2CN3C(=C(O)[C@H]2c2cccc([N+](=O)[O-])c2)Nc2ccccc23)cc1", "viability at 48 h, 50 ug/ml (%)": 69}
{"compound": "OC1=C2Nc3ccccc3N2CN(c2c(Cl)cccc2Cl)[C@@H]1c1cccc(O)c1", "viability at 48 h, 50 ug/ml (%)": 61}
{"compound": "O=[N+]([O-])c1ccc(N2CN3C(=C(O)[C@H]2c2ccccc2[N+](=O)[O-])Nc2ccccc23)cc1", "viability at 48 h, 50 ug/ml (%)": 61}

###

Experiment: Cytotoxicity against African green monkey Vero cells assessed as survival at 25 ug/ml after 48 hrs by Cell-Titre Blue assay
Format: cell-based
Conditions: chlorocebus sabaeus, read-out: Survival
Each entry below carries its reported viability at 48 h, 25 ug/ml.

{"smi": "Cc1cccc(C)c1N1CN2C(=C(O)[C@H]1c1ccc(O)cc1)Nc1ccccc12", "viability at 48 h, 25 ug/ml": "66%"}
{"smi": "NNC(=O)c1ccncc1", "viability at 48 h, 25 ug/ml": "100%"}
{"smi": "O=[N+]([O-])c1ccc(N2CN3C(=C(O)[C@H]2c2ccccc2[N+](=O)[O-])Nc2ccccc23)cc1", "viability at 48 h, 25 ug/ml": "53%"}
{"smi": "Cc1ccc([C@@H]2C(O)=C3Nc4ccccc4N3CN2c2c(C)cccc2C)c(N)c1C", "viability at 48 h, 25 ug/ml": "64%"}
{"smi": "OC1=C2Nc3ccccc3N2CN(c2c(Cl)cccc2Cl)[C@@H]1c1cccc(O)c1", "viability at 48 h, 25 ug/ml": "63%"}
{"smi": "OC1=C2Nc3ccccc3N2CN(c2cc(Cl)cc(Cl)c2)[C@@H]1c1ccc(Cl)cc1", "viability at 48 h, 25 ug/ml": "63%"}
{"smi": "O=[N+]([O-])c1ccc(N2CN3C(=C(O)[C@H]2c2cccc([N+](=O)[O-])c2)Nc2ccccc23)cc1", "viability at 48 h, 25 ug/ml": "66%"}
{"smi": "COc1ccc(N2CN3C(=C(O)[C@H]2c2cccc(-c4ccccn4)c2)Nc2ccccc23)cc1", "viability at 48 h, 25 ug/ml": "66%"}
{"smi": "COc1ccccc1N1CN2C(=C(O)[C@H]1c1ccccc1O)Nc1ccccc12", "viability at 48 h, 25 ug/ml": "63%"}
